Attribution: PubChem BioAssay

Assay: probe aShh binding to arrayed compounds – biochemical, biotinylated probe, 635/667 nm fluorescence, primary screen (AID 1114);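 also: probe is biotin-labelled aShh protein from a stem cell growth factor screen; measures binding of labelled protein to compounds printed on the slide; score merges feature fluorescence at 667 nm with signal-to-noise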
Settings: small-molecule microarray, higher = more signal
This listing pairs compounds with measured composite z-score.
property_name: composite z-score

compound | experimental_result
CCOC(=O)C1=CC[C@H]2C(=O)N(c3ccccc3)C(=O)[C@@H]12 | -0.0793
C=C(CCCC)C(=O)CC[C@@H](OC(C)=O)c1ccc(CO)o1 | -0.206
CCOC(=O)C[C@H]1[C@H](OC(=O)c2cc3ccccc3oc2=O)[C@@H](NC(=O)CC(C)C)c2cc(OCCCO)ccc2N1C(=O)c1ccccc1 | -0.0011
[N-]=[N+]=Nc1ccccc1C[C@]1(C(=O)NCC(O)CO)N=C(c2ccc(OCCCO)cc2)O[C@H]1c1ccccc1 (stereo partly drawn) | -0.0709
COCC(=C=CC[C@@H](O)c1ccc(OCCO)cc1)C[C@@H](O)c1ccccn1 | 0.227
CCCCC(=C=CC[C@H](O)c1cccc(OCCO)c1)C[C@H](O)c1ccccn1 | -0.13
COC(=O)[C@@]1(Cc2ccc(OC)cc2)[C@H]2c3cc(C(=O)N4CCCC4)n(Cc4nc5ccccc5[nH]4)c3C[C@H]2CN1C(=O)c1ccccc1 | 0.215
CCCCCCc1nc(-c2ccc(-c3ccc(Cl)c(Cl)c3)o2)cc2c1[Si](C(C)C)(C(C)C)O[C@H]2c1ccccc1 | 0.0723
